B1: SNX3 (parent)
chain: FLRQLPFRGDDGIFDDNFIEERKQ

- Variants of: B1
- Experimental protocol: protein stability index of a GFP-peptide fusion (GPS, HEK-293T) (PSI 1-6); higher = more stable;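 note: lentivirally expressed fusions sorted by FACS into six bins by GFP to DsRed ratio, PSI derived from sequencing read proportions per bin multiplied by bin number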
- Stated conditions: c terminus: a fixed tail appended
Endpoint label: protein stability index
Give your answer as a number; write no unit.

Recorded protein stability index, per entry:
Mutant designation	protein stability index
N17K	3.98
G9Y	2.53
R22M	3.45
Q4D	4.26
Q4N	2.13
E21S	2.83
R22C	2.85
Q4A	3.78
D11H	3.15
D15P	3.04

**Query** Returns the measured protein stability index for the input variant. Input: R8P
**Result** 3.75

**Query** Returns the measured protein stability index for the input variant. Input: D11W
**Result** 1.94

**Query** Returns the measured protein stability index for the input variant. Input: Q24R
**Result** 3.48

**Query** Returns the measured protein stability index for the input variant. Input: D11S
**Result** 4.12

**Query** Returns the measured protein stability index for the input variant. Input: K23T
**Result** 3.52

**Query** Returns the measured protein stability index for the input variant. Input: F7T
**Result** 4.35
